test system: gramicidin D channels in DC22:1PC lipid vesicles (bilayer-modifying potency); assay: initial Tl+ fluorescence quench rate relative to no-drug control (NormRate, gramicidin monomer-dimer shift) (ratio (fold of control)); higher = stronger bilayer-modifying effect (equilibrium shifted toward conducting dimers), active = 1.5 or more; conditions: 10 µM; lipid concentration 50 µM; temperature: 25 °C
Answer each item with its documented initial Tl+ fluorescence quench rate.
Please reply with the value in numeric form only.

Entry CCc1nn(C)c(C(=O)NCc2ccc(Oc3ccc(C)cc3)cc2)c1Cl ; initial Tl+ fluorescence quench rate = 2.89

Entry CC1(C)OB(O)c2ccc(C3=NO[C@@](c4cc(Cl)c(F)c(Cl)c4)(C(F)(F)F)C3)cc21 ; initial Tl+ fluorescence quench rate = 4.11

Entry C[C@@H]1CO[C@](Cn2cncn2)(c2ccc(Oc3ccc(Cl)cc3)cc2Cl)O1 ; initial Tl+ fluorescence quench rate = 2.49

Entry Cc1cccc(C(=O)Nc2ccnc(N(C)C3CCN(CC(C)C)CC3)c2)c1 ; initial Tl+ fluorescence quench rate = 1.12

Entry Nc1c2c(nc3sc4c(c13)CCCC4)CCCC2 ; initial Tl+ fluorescence quench rate = 1.07

Entry CC(C)(C)[C@@H](O)[C@H](Oc1ccc(-c2ccccc2)cc1)n1cncn1 ; initial Tl+ fluorescence quench rate = 2.39

Entry O=C1O[C@@H](CO)CN1c1cc(F)c(C2=CCN(Cc3ccccc3)CC2)c(F)c1 ; initial Tl+ fluorescence quench rate = 1.13
